Hello, the source for this data is ChEMBL document CHEMBL1135924, in case you need it.

measured-on: Protein kinase C alpha type (Homo sapiens, UniProt P17252)
protocol-notes: Inhibition of Protein kinase C alpha at 10 uM
metric-name: inhibition (%)
Record the value in %, omitting the unit from your answer.

Fill in the blank: the reported inhibition of CN1CCC(c2c(O)cc(O)c3c2O/C(=C\c2ccccc2)C3=O)CC1 is ____. 19

Entry to check: CN1CCC(c2c(O)cc(O)c3c2O/C(=C\c2ccc(N4CCN(C)CC4)cc2)C3=O)CC1 21

And CN1CCC(c2c(O)cc(O)c3c2O/C(=C\c2ccccc2Cl)C3=O)CC1 ? 22

Next up: CN1CCC(c2c(O)cc(O)c3c2O/C(=C\c2ccc(S(N)(=O)=O)cc2)C3=O)CC1 42

---

measured-on: Glycogen synthase kinase-3 (Homo sapiens, UniProt P49840+P49841)
protocol-notes: inhibition of Glycogen synthase kinase-3
Format: protein assay
Give IC50 for every item shown.
Just so you know, I need the unit written after the number.

Would you mind telling me what IC50 value was observed for CN1CCC(c2c(O)cc(O)c3c2O/C(=C\c2ccc([N+](=O)[O-])cc2)C3=O)CC1 ? 4.8 µM

Next molecule up: CN1CCC(c2c(O)cc(O)c3c2O/C(=C\c2ccccc2)C3=O)CC1 4.2 µM

Next: CN1CCC(c2c(O)cc(O)c3c2O/C(=C\c2ccc(S(N)(=O)=O)cc2)C3=O)CC1 3.7 µM

Follow-up entry: CN1CCC(c2c(O)cc(O)c3c2O/C(=C\c2ccc(N4CCN(C)CC4)cc2)C3=O)CC1 1.75 µM

Same lookup for CN1CCC(c2c(O)cc(O)c3c2O/C(=C\c2ccccc2Cl)C3=O)CC1 , please. 10 µM

---

measured-on: Cyclin-dependent kinase 2 (Homo sapiens)
protocol-notes: Inhibition of cyclin A activated Cyclin-dependent kinase 2 (CDK2)
Kindly supply the reported IC50 values for the records listed here.

Quick one: IC50 for CN1CCC(c2c(O)cc(O)c3c2O/C(=C\c2ccccc2)C3=O)CC1 ? 1280 nM

CN1CCC(c2c(O)cc(O)c3c2O/C(=C\c2ccccc2Cl)C3=O)CC1 ? 3970 nM

Cool, now CN1CCC(c2c(O)cc(O)c3c2O/C(=C\c2ccc(N4CCN(C)CC4)cc2)C3=O)CC1 2980 nM

What do you get for CN1CCC(c2c(O)cc(O)c3c2O/C(=C\c2ccc([N+](=O)[O-])cc2)C3=O)CC1 ? 310 nM

And CN1CCC(c2c(O)cc(O)c3c2O/C(=C\c2ccc(S(N)(=O)=O)cc2)C3=O)CC1 ? 30 nM
